These entries and their values trace back to patent US20220056018A1.

Tested on: SREBP
Assay: Reporter Screening Assay (SRE-luciferase reporter, HepG2)
Assay type: cell-based
Details: Homo sapiens; SRE-luciferase reporter HepG2 cells, 24 hours, 0.01 uM to 10 uM; read-out: I: Reporter Screening Assay (Ave EC50 (nM))
// reported EC50 per item

compound: CC(O)(CO)c1cc(-c2csc(-c3ccc(NS(C)(=O)=O)cc3Cl)c2)ccn1 (centres unmarked) [Compound I-9088]
data-value: > 500 nM
//
compound: CC(C)NS(=O)(=O)Nc1ccc(-c2cc(-c3ccnc(C(C)(C)CO)c3)cs2)c(Cl)c1 [Compound I-8941]
data-value: < 249 nM
//
compound: CC(C)(CO)c1cc(-c2csc(-c3ccc(NS(C)(=O)=O)cc3Cl)c2)ccn1 [Compound I-8909]
data-value: < 249 nM

Prompt line: Give the measured EC50 of CC(C)NC(=O)Nc1ccc(-c2cc(-c3ccnc(C(C)(C)C)c3)cs2)c(Cl)c1 [Compound I-8731] .
Response line: < 249 nM

Prompt line: Dear colleague, I am looking for the recorded EC50 of the following compound: CC(C)(CN)c1cc(-c2csc(-c3ccc(NS(C)(=O)=O)cc3Cl)c2)ccn1 [Compound I-9049]
Response line: > 500 nM

---

Assay: Stability in human liver microsomes
Type: in vitro ADME
Conditions: 37° C., NADPH
Procedure: Half-Life Human Microsomes: Compounds were evaluated for stability in human liver microsomes. A 10 mM stock solution of the compound being evaluated was prepared in DMSO and diluted with water:acetonitrile (1:1) to a concentration of 1 mM. […] To prepare the sample mixture to be evaluated, 25 μL incubation mixture was combined with 200 μL of acetonitrile containing internal standard and vortexed for 5 min at 1200 rpm, then centrifuged for 10 min at 4000 rpm. […]
endpoint: percent of compound remaining after 60 min in human liver microsomes

compound: CC(C)(CO)c1cc(-c2csc(-c3ccc(N4CCOC4=O)cc3Cl)c2)ccn1
data-value: ++ (30.1-60 = ++)
//
compound: CS(=O)(=O)Nc1ccc(-c2cc(-c3ccnc(OCC4COCCO4)c3)cs2)c(Cl)c1 (stereo not shown)
data-value: ++ (30.1-60 = ++)
//
compound: Cc1sc(-c2ccc(NS(C)(=O)=O)cc2Cl)cc1-c1ccnc(CC(C)(C)O)c1
data-value: +++ (>60.1 = +++)
//
compound: CS(=O)(=O)Nc1ccc(-c2cc(-c3ccnc(O[C@@H]4COC[C@@H]4O)c3)cs2)c(Cl)c1
data-value: +++ (>60.1 = +++)
//
compound: CC(C)(O)c1cc(-c2csc(-c3ccc(NS(C)(=O)=O)cc3Cl)c2)ccn1
data-value: +++ (>60.1 = +++)
//
compound: CC(C)(C#N)c1cc(-c2csc(-c3ccc(NS(C)(=O)=O)cc3Cl)c2)ccn1
data-value: +++ (>60.1 = +++)
//
compound: CC(C)(C)c1cc(-c2csc(-c3ccc(NC(=O)OCCN4CCCC4)cc3Cl)c2)ccn1
data-value: +++ (>60.1 = +++)
//
compound: CS(=O)(=O)Nc1ccc(-c2cc(-c3ccnc(OCCC4(O)COC4)c3)cs2)c(Cl)c1
data-value: +++ (>60.1 = +++)
//
compound: CC(C)OC(=O)Nc1ccc(-c2cc(-c3ccnc4c3OCCO4)cs2)c(Cl)c1
data-value: +++ (>60.1 = +++)
//
compound: CS(=O)(=O)Nc1ccc(-c2cc(-c3ccnc(C4(CO)CC4)c3)cs2)c(Cl)c1
data-value: +++ (>60.1 = +++)

Prompt line: Reported percent of compound remaining after 60 min in human liver microsomes, compound `CC(C)(CO)c1cc(-c2csc(-c3ccc(NC(=O)OC4CC4)cc3Cl)c2)ccn1` : ____
Response line: +++ (>60.1 = +++)

Prompt line: Which percent of compound remaining after 60 min in human liver microsomes is reported for this compound? `CC(C)(O)Cc1cc(-c2cc(-c3ccc(NS(C)(=O)=O)cc3Cl)sc2F)ccn1`
Response line: +++ (>60.1 = +++)
